assay.overview: qHTS Assay to Identify Small Molecule Activators of BRCA1 Expression; note: nearly all actives have a fitted effect of over 80% in size; note: potency is the fitted concentration of half-maximal effect
condition.label: MCF7-BRCA1-FFLuc reporter, luminescence, 48 h; series mostly up to 46.1 µM
Out of some 380,000 compounds screened, about 4,000 (1.1%) were called active. Inconclusive results (about 3%) are left out. The entries come from a sample that favours actives as a whole.

smi: Cc1nc(NC(=O)C2CCCCC2)sc1C
Potency: 12.6 µM (active)
--
smi: COc1ccc(/C=C/c2nnc(NC(=O)C(C)C)s2)cc1
Potency: 3.98 µM (active)
--
smi: COc1ccc(N(CC(=O)NCCc2ccc(Cl)cc2)S(=O)(=O)c2c(C)nn(C)c2C)cc1
Potency: inactive
--
smi: COc1cc(CN(C(=O)c2ccccc2Br)c2ccccn2)cc(OC)c1OC
Potency: inactive
--
smi: COCCn1c(SCC(=O)c2cc(C)ccc2C)nc2cc(C(=O)NC3CCCC3)ccc2c1=O
Potency: inactive
--
smi: CC(C)=CCc1c(O)c(CC=C(C)C)c2occ(-c3ccc(O)cc3)c(=O)c2c1O
Potency: inactive
--
smi: O=C(/C=C/c1ccccc1)N1CCN(Cc2cc(=O)n3nc(-c4ccccc4F)sc3n2)CC1
Potency: inactive
--
smi: CN(C)c1ccc(/C=C/c2sc3ccccc3[n+]2C)cc1
Potency: inactive
--
smi: O=c1c(-c2ccccc2)coc2cc(O)ccc12
Potency: 12.6 µM (active)
--
smi: CCOC(=O)c1cccc(NS(=O)(=O)c2cc(-c3cnc(C)o3)ccc2OC)c1
Potency: inactive
